# procedure summary: IL-1beta-induced NF-kB reporter signal decrease – LMP1 TES2-inducible cells, luciferase, dry powder, selectivity assay for EBV LMP1 NF-kB inhibitor project, dose response (AID 624360)
# run parameters: HEK293 IL-1beta-induced NF-kB luciferase reporter (LMP1 TES2-inducible cell line), 16 h
Records with an inconclusive call do not appear.
experimental readout: AC35

compound	result
C/C(=N\NC(=S)N1CC2CCC(CC2)C1)c1cnccn1	0.0862 µM
COc1ccc2[nH]c(C(=O)N/N=C/c3ccc(O)cc3O)cc2c1	6.48 µM
CC1CN(C(=O)CSc2nnc3c4ccccc4n(Cc4cccc(Cl)c4)c3n2)CCN1C(=O)c1ccccc1F (centres undefined)	9.28 µM
C/C(=N\NC(=S)N1CCC1)c1ccccn1	0.287 µM
C/C(=N\NC(=S)N1CC2CCC(CC2)C1)c1ccccn1	0.913 µM
Cc1cc(NC(=O)c2ccc3c(c2)OCCO3)no1	111 µM
C[C@H](CO)N1C[C@H](C)[C@@H](CN(C)CC2CC2)OCCCC[C@H](C)Oc2ccc(NC(=O)Nc3cccc4ccccc34)cc2C1=O	1.13 µM
C/C(=N\NC(=S)N1CCCCC1)c1cccc(C)n1	0.343 µM
C[C@@H]1CN([C@@H](C)CO)C(=O)c2cccc(NC(=O)Nc3cccc4ccccc34)c2O[C@H]1CN(C)C(=O)Nc1ccc(C(F)(F)F)cc1	11.4 µM
C[C@@H]1CN([C@@H](C)CO)C(=O)c2cc(NC(=O)Nc3ccc4c(c3)OCO4)ccc2O[C@H]1CN(C)CC1CCCCC1	2.7 µM
Fc1ccc2c(c1)c1nnc(SCCN3CCOCC3)nc1n2Cc1ccccc1	4.49 µM
C/C=C/C/C=C/CCC(=O)[C@H]1O[C@H]1C(N)=O	7.67 µM
C[C@@H]1CCCCO[C@H](CN(C)C(=O)NC2CCCCC2)[C@H](C)CN([C@@H](C)CO)C(=O)c2cc(NC(=O)C3CCCCC3)ccc2O1	11.7 µM
CC(C)=CCN(C(=O)C#Cc1ccccc1)[C@H](CO)c1ccccc1	2.5 µM
C[C@H](CO)N1C[C@H](C)[C@H](CN(C)C(=O)Nc2ccc(C(F)(F)F)cc2)OCCCC[C@H](C)Oc2ccc(NC(=O)Nc3ccc(F)cc3)cc2C1=O	7.85 µM
Cc1ccc(NC(=O)C2CCN(S(=O)(=O)c3ccc4c(c3)NC(=O)C(C)S4)CC2)cc1Cl (centres undefined)	3.67 µM
O=c1[nH]c(Nc2nc3ccccc3o2)nc2c1CCCC2	107 µM
Nc1ccn([C@@H]2O[C@H](CO)[C@@H](O)C2O)c(=O)n1 (some centres undefined)	15.8 µM
C/C(=N\NC(=S)Nc1ccccc1)c1ccccn1	0.522 µM

* * *

# procedure summary: IL-1beta-induced NF-kB reporter signal decrease – LMP1 TES2-inducible cells, luciferase, dry powder, selectivity assay for EBV LMP1 NF-kB inhibitor project, dose response (AID 624360)
# run parameters: HEK293 IL-1beta-induced NF-kB luciferase reporter (LMP1 TES2-inducible cell line), 16 h
Results filed as inconclusive are left out.

compound	AC35
Cc1ccc(S(=O)(=O)Nc2ccc3c(c2)C(=O)N([C@@H](C)CO)C[C@H](C)[C@@H](CN(C)C(=O)CCC(F)(F)F)OCCCC[C@H](C)O3)cc1	488 nM
COc1ccccc1[C@]1(C)ON(c2ccccc2C(F)(F)F)C1=O	8170 nM
C[C@H](CO)N1C[C@H](C)[C@@H](CN(C)Cc2ccc(-c3ccccc3)cc2)Oc2ccc(NC(=O)Nc3cccc4ccccc34)cc2CC1=O	4640 nM
C/C(=N\NC(=S)N1CCCCC1)c1ccccn1	168 nM
CCN1CCN(C(c2cccnc2)c2cc(Cl)c3cccnc3c2O)CC1 (stereo not drawn)	5660 nM
CCC(Sc1nnc2c3ccccc3n(Cc3ccc(Br)cc3)c2n1)C(=O)NCCCN1CCOCC1 (stereo not drawn)	2710 nM
S=C(N/N=C(\c1ccccc1)c1ccccn1)N(Cc1ccccn1)Cc1ccccn1	769 nM
COc1ccc2nc(Nc3nc(C)c(CCC(C)C)c(=O)[nH]3)nc(C)c2c1	2720 nM
CCCSc1nnc2c3ccccc3n(Cc3ccccc3)c2n1	2610 nM
C/C(=N\NC(=S)N1CCCCCC1)c1ccccn1	213 nM
C/C(=N\NC(=S)N1CCCC1)c1ccccn1	156 nM
O=C1/C(=C/c2ccncc2)SC(=S)N1Cc1ccccc1	91500 nM
S=C(NCc1ccccn1)N/N=C/c1ccccn1	1980 nM
